assay comment: Anticonvulsive action, maximal electroshock (MES), mouse i.p.
Format: in vivo
protocol conditions: ip; mouse i.p., MES, 100 mg/kg; read-out: Action, % of the protected animals (MES)
So I've got a bunch of compounds here, and I need their responders at 100 mg/kg values.
Please reply with the bare figure in % and do not write the unit itself.

Ask | Answer with the recorded responders at 100 mg/kg of "O=c1[nH]nnc2nn(Cc3cccc(Cl)c3)cc12" only.
Reply | 100

Ask | Tell me measured responders at 100 mg/kg for "O=c1[nH]nnc2nn(Cc3cccc(C(F)(F)F)c3)cc12" please.
Reply | 66

Ask | Return the recorded responders at 100 mg/kg value; entry: "O=c1[nH]nnc2nn(Cc3ccccc3)cc12"
Reply | 66

Ask | State its responders at 100 mg/kg for this compound: "Cc1c2c(=O)[nH]nnc2nn1Cc1ccccc1Cl"
Reply | 66

Ask | Specify reported responders at 100 mg/kg for the compound shown: "O=c1[nH]nnc2nn(Cc3ccc(F)cc3)cc12"
Reply | 66

Ask | Return value of responders at 100 mg/kg for input NC(=O)N1c2ccccc2C=Cc2ccccc21 [Carbamazepine, reference compound] , no commentary.
Reply | 100
